Would you mind telling me the reported IC50 of each entry?
Test: Inhibition of Mycobacterium smegmatis DprE1 expressed in Escherichia coli Rosetta cells using farnesyl-phosphoryl-beta-D-ribofuranose as substrate by fluorescence analysis
Set-up: species or system Mycolicibacterium smegmatis
Number only, in nM; omit the unit.

Look up IC50: Cc1nn(-c2ccccc2)c2[nH]c(=O)c(CNCc3cccc(F)c3)cc12
2000

Look up IC50: Cc1ccc(C(F)(F)F)nc1CNCc1cc2c(C3CC3)nn(-c3ccccc3)c2[nH]c1=O
10

Look up IC50: O=c1[nH]c2c(cc1CNCc1cccc(C(F)(F)F)n1)c(C1CC1)nn2-c1ccccc1
50

###

Assay: Fraction unbound in human plasma at 20 uM by equilibrium dialysis technique
Type: ADME, cell-free
result-type: fraction unbound at 20 µM

Look up fraction unbound at 20 µM: Cc1ccc(C(F)(F)F)cc1CNCc1cc2c(C)nn(-c3ccccc3)c2[nH]c1=O
< 0.01

Look up fraction unbound at 20 µM: O=c1[nH]c2c(cc1CNCc1cccc(C(F)(F)F)c1)c(C1CC1)nn2-c1ccccc1
0.01

Look up fraction unbound at 20 µM: Cc1ccc(C(F)(F)F)nc1CNCc1cc2c(C3CC3)nn(-c3ccccc3)c2[nH]c1=O
< 0.01

Look up fraction unbound at 20 µM: Cc1ccc(C(F)(F)F)cc1CNCc1cc2c(C3CC3)nn(-c3ccccc3)c2[nH]c1=O
< 0.01

Look up fraction unbound at 20 µM: Cc1ccc(C(F)(F)F)cc1CNCc1cc2c(C(C)C)nn(-c3ccccc3)c2[nH]c1=O
< 0.01

Look up fraction unbound at 20 µM: O=c1[nH]c2c(cc1CNCc1cccc(C(F)(F)F)n1)c(C1CC1)nn2-c1ccccc1
0.011

###

Assay: Aqueous kinetic solubility of the compound in 0.1 M phosphate buffer at pH 7.4 by UV-MS analysis
Format: physicochemical
Conditions: read-out: Kinetic_solubility
result-type: solubility kinetic (µM)
Number only, in µM; omit the unit.

Look up solubility kinetic: O=c1[nH]c2c(cc1CNCc1cccc(C(F)(F)F)c1)c(C1CC1)nn2-c1ccccc1
1

Look up solubility kinetic: Cc1ccc(C(F)(F)F)cc1CNCc1cc2c(C(C)C)nn(-c3ccccc3)c2[nH]c1=O
10

Look up solubility kinetic: Cc1ccc(C(F)(F)F)cc1CNCc1cc2c(C)nn(-c3ccccc3)c2[nH]c1=O
55

Look up solubility kinetic: O=c1[nH]c2c(cc1CNCc1cccc(C(F)(F)F)n1)c(C1CC1)nn2-c1ccccc1
153

Look up solubility kinetic: Cc1ccc(C(F)(F)F)nc1CNCc1cc2c(C3CC3)nn(-c3ccccc3)c2[nH]c1=O
1

###

Test system: Mycobacterium tuberculosis
Assay: Antimycobacterial activity against Mycobacterium tuberculosis Beijing (E-47/94) assessed as growth inhibition after 2 to 3 weeks by turbidometry
Assay type: functional
result-type: MIC (µM)
Number only, in µM; omit the unit.

Look up MIC: Cc1nn(-c2ccccc2)c2[nH]c(=O)c(CNCc3cccc(C(F)(F)F)c3)cc12
3.1

Look up MIC: O=c1[nH]c2c(cc1CNCc1cccc(C(F)(F)F)c1)c(C1CC1)nn2-c1ccccc1
1.6

Look up MIC: CC[C@@H](CO)NCCN[C@@H](CC)CO [ETHAMBUTOL]
2

Look up MIC: NNC(=O)c1ccncc1 [ISONIAZID]
0.2

Look up MIC: CC1COc2c(N3CCN(C)CC3)c(F)cc3c(=O)c(C(=O)O)cn1c23 (configuration not stated) [OFLOXACIN]
0.7

Look up MIC: CO[C@H]1/C=C/O[C@@]2(C)Oc3c(C)c(O)c4c(O)c(c(/C=N/N5CCN(C)CC5)c(O)c4c3C2=O)NC(=O)/C(C)=C\C=C\[C@H](C)[C@H](O)[C@@H](C)[C@@H](O)[C@@H](C)[C@H](OC(C)=O)[C@@H]1C [RIFAMPIN]
0.02

Look up MIC: CN[C@@H]1[C@H](O[C@H]2[C@H](O[C@H]3[C@H](O)[C@@H](O)[C@H](N=C(N)N)[C@@H](O)[C@@H]3N=C(N)N)O[C@@H](C)[C@]2(O)C=O)O[C@@H](CO)[C@H](O)[C@H]1O [STREPTOMYCIN]
0.3
